Source of measurements: patent US11426412B2

test-target: PAD4 (Homo sapiens (Human))
Sequence (Q9UM07 whole entry): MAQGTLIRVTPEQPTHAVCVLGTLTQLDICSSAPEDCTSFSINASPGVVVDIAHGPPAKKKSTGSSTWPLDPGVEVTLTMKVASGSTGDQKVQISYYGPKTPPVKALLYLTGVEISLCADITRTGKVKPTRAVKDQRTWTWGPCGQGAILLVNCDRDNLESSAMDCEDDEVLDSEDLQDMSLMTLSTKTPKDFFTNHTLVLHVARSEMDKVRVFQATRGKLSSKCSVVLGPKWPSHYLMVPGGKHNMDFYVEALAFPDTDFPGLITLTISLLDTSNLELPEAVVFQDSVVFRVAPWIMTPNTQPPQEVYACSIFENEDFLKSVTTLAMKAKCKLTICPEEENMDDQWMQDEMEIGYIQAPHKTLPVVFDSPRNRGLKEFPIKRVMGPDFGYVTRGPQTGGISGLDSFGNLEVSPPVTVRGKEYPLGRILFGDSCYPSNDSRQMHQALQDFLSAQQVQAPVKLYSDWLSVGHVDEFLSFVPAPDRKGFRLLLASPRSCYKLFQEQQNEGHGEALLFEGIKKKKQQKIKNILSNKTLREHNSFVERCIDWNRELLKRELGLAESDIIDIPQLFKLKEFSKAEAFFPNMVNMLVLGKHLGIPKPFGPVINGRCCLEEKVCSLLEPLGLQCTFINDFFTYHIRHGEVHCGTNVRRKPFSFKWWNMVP
experimental-details: Ammonia release biochemical assay (citrullination)
test-settings: read-out: NH3 release biochemical assay PAD4 IC50
value-type: IC50

cpd_smiles=Cc1c(-c2cc3ccccc3n2CC2CC2)nc2cc(C(=O)N3CC[C@@H](N)C3)ccn12 value_type=IC50 readout_value="> 10000 nM"
cpd_smiles=Cc1c(-c2cc3ccccc3n2Cc2ccc(F)cc2)nc2cc(C(=S)N3CCC[C@@H](N)C3)ccn12 value_type=IC50 readout_value="< 1000 nM"
cpd_smiles=Cc1c(-c2cc3cccc(Cl)c3n2Cc2ccc(F)cc2)nc2cc(C(=O)N3CCC[C@@H](N)C3)ccn12 value_type=IC50 readout_value="< 1000 nM"
cpd_smiles=COc1ccc(Cn2c(-c3nc4cc(C(=O)N5CCC[C@@H](N)C5)ccn4c3C)cc3cc(F)ccc32)cc1 value_type=IC50 readout_value="< 1000 nM"
cpd_smiles=COc1ccc2cc(-c3nc4cc(C(=O)N5CCC[C@@H](N)C5)ccn4c3C)n(CC(C)C)c2c1 value_type=IC50 readout_value="< 1000 nM"
cpd_smiles=Cc1c(-c2cc3ccc(F)cc3n2CC2CC2)nc2cc(C(=O)N3CCC[C@@H](N)C3)ccn12 value_type=IC50 readout_value="< 1000 nM"

Consider the molecule `Cc1c(-c2cc3ccccc3n2Cc2ccc(F)cn2)nc2cc(C(=O)N3CCC[C@@H](N)C3)ccn12` and give its measured IC50.
< 1000 nM

Consider the molecule `CCn1c(-c2nc3cc(C(=O)N4CCC[C@@H](N)C4)ccn3c2C)cc2ccc(OC)cc21` and give its measured IC50.
< 1000 nM
